Reported MIC values follow for various compounds
System: Bacillus subtilis
method_summary: Antibacterial activity against Bacillus subtilis after 18 hr by serial dilution method
Format: functional
# output: bare number, implied unit µg/mL

{"compound": "O=C(NCC(=O)N1c2ccccc2Sc2ccccc21)NN1C(=O)C(Cl)C1c1cccc(F)c1 (stereo not given)", "measured_on": "Bacillus subtilis", "quantity_kind": "MIC", "recorded_result": 62.5}
{"compound": "O=C(NCC(=O)N1c2ccccc2Sc2ccccc21)NN1C(=O)C(Cl)C1c1ccccc1Cl (stereo not given)", "measured_on": "Bacillus subtilis", "quantity_kind": "MIC", "recorded_result": 250}
{"compound": "O=C(NCC(=O)N1c2ccccc2Sc2ccccc21)NN1C(=O)C(Cl)C1c1ccc(O)cc1 (stereo not given)", "measured_on": "Bacillus subtilis", "quantity_kind": "MIC", "recorded_result": 125}
{"compound": "COc1ccc(C2C(Cl)C(=O)N2NC(=O)NCC(=O)N2c3ccccc3Sc3ccccc32)cc1 (stereo not given)", "measured_on": "Bacillus subtilis", "quantity_kind": "MIC", "recorded_result": 250}

State the recorded MIC for this entry: O=C(O)c1cn(C2CC2)c2cc(N3CCNCC3)c(F)cc2c1=O 62.5

State the recorded MIC for this entry: O=C(NCC(=O)N1c2ccccc2Sc2ccccc21)NN1C(=O)C(Cl)C1c1ccc(Cl)cc1 (stereo not given) 125

State the recorded MIC for this entry: COc1cc(C2C(Cl)C(=O)N2NC(=O)NCC(=O)N2c3ccccc3Sc3ccccc32)ccc1O (stereo not given) 250

State the recorded MIC for this entry: O=C(NCC(=O)N1c2ccccc2Sc2ccccc21)NN1C(=O)C(Cl)C1c1ccc([N+](=O)[O-])cc1 (stereo not given) 250

State the recorded MIC for this entry: CN(C)c1ccc(C2C(Cl)C(=O)N2NC(=O)NCC(=O)N2c3ccccc3Sc3ccccc32)cc1 (stereo not given) 125

State the recorded MIC for this entry: O=C(NCC(=O)N1c2ccccc2Sc2ccccc21)NN1C(=O)C(Cl)C1c1cccc(Cl)c1 (stereo not given) 125
